biological target: REFACTO® (recombinant factor VIII-like polypeptide consisting of amino acids 1-743 and 1638 through 2332 of human factor VIII) (human) (UniProt P00451); assay: affinity column, peptide on Toyopearl Formyl 650-M; target in fraction by activity assay
Sequence (P00451 20-762, chain 1 of 2): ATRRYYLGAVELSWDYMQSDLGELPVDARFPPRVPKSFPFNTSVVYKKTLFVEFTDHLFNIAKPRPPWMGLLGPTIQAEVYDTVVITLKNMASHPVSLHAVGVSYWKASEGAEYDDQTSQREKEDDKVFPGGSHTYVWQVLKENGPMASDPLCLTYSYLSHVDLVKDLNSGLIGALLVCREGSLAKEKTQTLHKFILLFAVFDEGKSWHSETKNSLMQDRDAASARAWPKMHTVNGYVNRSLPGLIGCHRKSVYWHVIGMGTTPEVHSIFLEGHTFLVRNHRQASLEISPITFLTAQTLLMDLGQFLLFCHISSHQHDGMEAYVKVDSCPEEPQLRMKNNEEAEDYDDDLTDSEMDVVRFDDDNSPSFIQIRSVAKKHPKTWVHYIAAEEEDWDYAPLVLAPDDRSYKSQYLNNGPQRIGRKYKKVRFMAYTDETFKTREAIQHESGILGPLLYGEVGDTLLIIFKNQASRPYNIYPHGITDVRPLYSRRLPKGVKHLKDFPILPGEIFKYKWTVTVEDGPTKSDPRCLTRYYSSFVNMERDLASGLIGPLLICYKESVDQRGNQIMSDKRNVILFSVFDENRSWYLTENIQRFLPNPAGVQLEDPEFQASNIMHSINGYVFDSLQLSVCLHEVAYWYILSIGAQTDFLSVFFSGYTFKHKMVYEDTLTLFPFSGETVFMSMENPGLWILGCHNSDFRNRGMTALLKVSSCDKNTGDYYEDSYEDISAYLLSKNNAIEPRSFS
Sequence (P00451 1657-2351, chain 2 of 2): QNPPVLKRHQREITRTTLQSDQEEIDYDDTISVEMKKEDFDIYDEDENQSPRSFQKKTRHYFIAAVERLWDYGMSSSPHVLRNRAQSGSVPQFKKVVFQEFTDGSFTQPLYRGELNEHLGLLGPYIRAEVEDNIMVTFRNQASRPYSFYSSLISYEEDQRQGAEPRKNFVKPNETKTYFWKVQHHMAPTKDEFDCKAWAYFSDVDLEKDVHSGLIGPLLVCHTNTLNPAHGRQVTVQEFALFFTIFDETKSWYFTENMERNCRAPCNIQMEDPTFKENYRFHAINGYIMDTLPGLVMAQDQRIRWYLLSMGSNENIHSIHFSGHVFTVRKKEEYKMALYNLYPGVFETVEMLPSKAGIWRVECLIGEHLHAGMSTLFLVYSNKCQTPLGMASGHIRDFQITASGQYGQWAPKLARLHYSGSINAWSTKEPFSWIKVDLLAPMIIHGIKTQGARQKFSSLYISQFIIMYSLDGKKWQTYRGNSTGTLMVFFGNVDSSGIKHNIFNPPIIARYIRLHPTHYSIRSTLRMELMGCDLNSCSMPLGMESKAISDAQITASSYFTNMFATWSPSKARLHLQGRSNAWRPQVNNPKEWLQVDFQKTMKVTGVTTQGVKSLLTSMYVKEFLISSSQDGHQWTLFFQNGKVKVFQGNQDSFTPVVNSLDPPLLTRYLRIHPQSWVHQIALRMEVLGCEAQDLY
Positions of bridges follow the written chain, without caps; N, C: chain ends. No end group written: not given here. *: point of attachment. NHNH2 = NN*
reported property: % recovery, Elution A (%)

| binder | unit abbreviation | % recovery, Elution A |
| --- | --- | --- |
| AEGTGDFGCSWLFPCPFDPGPEGGGS-NHNH2 (disulfide 9-15 (inferred)) [Affinity ligand CS-456] | % | 43 |

I: AEGTGDFCWVFPFQHCADPGPEGGGS-NHNH2 (disulfide 8-16 (inferred)) [Affinity ligand CS-459]
II: AEGTGDFCWVFPFHHCFDPGPEGGGS-NHNH2 (disulfide 8-16 (inferred)) [Affinity ligand CS-460]
III: AEGTGDFHCIGVWFCLHDPGPEGGGS-NHNH2 (disulfide 9-15 (inferred)) [Affinity ligand CS-455]
Please give the order of these binders when sorted by % recovery, Elution A, largest value leading. Rank them, then answer with their labels in that order.
I, III, II
(I: 31.2%, III: 1.3%, II: 0%)
